# Tested on: RPMI-8226
# method: NCI cytotoxicity screen
# Assay type: cell-based, human
# experimental_parameters: 10.0 μM one dose
Property: GI %; scope: individual compounds
Could you give me the number in %? Just the number is fine.

Some entries whose results are on file:
compound: NS(=O)(=O)c1ccc(Cn2c(SCC(=O)NN=Cc3ccccc3O)nc3ccccc3c2=O)cc1
measurement: 51

compound: COc1cc(C=NNC(=O)CSc2nc3ccccc3c(=O)n2Cc2ccc(S(N)(=O)=O)cc2)cc(OC)c1OC
measurement: 13

compound: CCN(CC)c1ccc(C=NNC(=O)CSc2nc3ccccc3c(=O)n2Cc2ccc(S(N)(=O)=O)cc2)c(O)c1
measurement: 83

Query compound follows.
Q: Look up GI %: Cc1ccc(NC(=O)c2ccc(CN3CCN(C)CC3)cc2)cc1Nc1nccc(-c2cccnc2)n1 [Imatinib, reference compound]
Result: 12.6

---

Property: GI %; scope: individual compounds
# System: SNB-75
# method: NCI cytotoxicity screen
# Assay type: cell-based, human
# experimental_parameters: 10.0 μM one dose
Could you give me the number in %? Just the number is fine.

Some entries whose results are on file:
compound: Cc1ccc(C=NNC(=O)CSc2nc3ccccc3c(=O)n2Cc2ccc(S(N)(=O)=O)cc2)cc1 [Compound 9]
GI % / %: 29
//
compound: CCN(CC)c1ccc(C=NNC(=O)CSc2nc3ccccc3c(=O)n2Cc2ccc(S(N)(=O)=O)cc2)c(O)c1 [Compound 5]
GI % / %: 62

Q: For the record NS(=O)(=O)c1ccc(Cn2c(SCC(=O)NN=Cc3ccccc3)nc3ccccc3c2=O)cc1 [Compound 4] , what value of GI % is listed for SNB-75?
Result: 13

Q: For the record CCOC(=O)CSc1nc2ccccc2c(=O)n1Cc1ccc(S(N)(=O)=O)cc1 [Compound 2] , what value of GI % is listed for SNB-75?
Result: 15

Q: For the record NS(=O)(=O)c1ccc(Cn2c(SCC(=O)NN=Cc3ccccc3O)nc3ccccc3c2=O)cc1 [Compound 6] , what value of GI % is listed for SNB-75?
Result: 15

---

# Test system: PC-3
# method: NCI cytotoxicity screen
# Assay type: cell-based, human
# experimental_parameters: 10.0 μM one dose
quantity: GI % (%)
Could you give me the number in %? Just the number is fine.

Some entries whose results are on file:
compound: NS(=O)(=O)c1ccc(Cn2c(SCC(=O)NN=Cc3ccccc3O)nc3ccccc3c2=O)cc1 [Compound 6]
unit_abbreviation: %
GI %: 33
--
compound: CCN(CC)c1ccc(C=NNC(=O)CSc2nc3ccccc3c(=O)n2Cc2ccc(S(N)(=O)=O)cc2)c(O)c1 [Compound 5]
unit_abbreviation: %
GI %: 51
--
compound: Cc1ccc(NC(=O)c2ccc(CN3CCN(C)CC3)cc2)cc1Nc1nccc(-c2cccnc2)n1 [Imatinib, reference compound]
unit_abbreviation: %
GI %: 10.6

Query compound follows.
Q: Look up GI %: Cc1ccc(C=NNC(=O)CSc2nc3ccccc3c(=O)n2Cc2ccc(S(N)(=O)=O)cc2)cc1 [Compound 9]
Result: 11

---

# study_target: HER2 (Homo sapiens, UniProt P04626)
# Sequence (P04626 23-1255): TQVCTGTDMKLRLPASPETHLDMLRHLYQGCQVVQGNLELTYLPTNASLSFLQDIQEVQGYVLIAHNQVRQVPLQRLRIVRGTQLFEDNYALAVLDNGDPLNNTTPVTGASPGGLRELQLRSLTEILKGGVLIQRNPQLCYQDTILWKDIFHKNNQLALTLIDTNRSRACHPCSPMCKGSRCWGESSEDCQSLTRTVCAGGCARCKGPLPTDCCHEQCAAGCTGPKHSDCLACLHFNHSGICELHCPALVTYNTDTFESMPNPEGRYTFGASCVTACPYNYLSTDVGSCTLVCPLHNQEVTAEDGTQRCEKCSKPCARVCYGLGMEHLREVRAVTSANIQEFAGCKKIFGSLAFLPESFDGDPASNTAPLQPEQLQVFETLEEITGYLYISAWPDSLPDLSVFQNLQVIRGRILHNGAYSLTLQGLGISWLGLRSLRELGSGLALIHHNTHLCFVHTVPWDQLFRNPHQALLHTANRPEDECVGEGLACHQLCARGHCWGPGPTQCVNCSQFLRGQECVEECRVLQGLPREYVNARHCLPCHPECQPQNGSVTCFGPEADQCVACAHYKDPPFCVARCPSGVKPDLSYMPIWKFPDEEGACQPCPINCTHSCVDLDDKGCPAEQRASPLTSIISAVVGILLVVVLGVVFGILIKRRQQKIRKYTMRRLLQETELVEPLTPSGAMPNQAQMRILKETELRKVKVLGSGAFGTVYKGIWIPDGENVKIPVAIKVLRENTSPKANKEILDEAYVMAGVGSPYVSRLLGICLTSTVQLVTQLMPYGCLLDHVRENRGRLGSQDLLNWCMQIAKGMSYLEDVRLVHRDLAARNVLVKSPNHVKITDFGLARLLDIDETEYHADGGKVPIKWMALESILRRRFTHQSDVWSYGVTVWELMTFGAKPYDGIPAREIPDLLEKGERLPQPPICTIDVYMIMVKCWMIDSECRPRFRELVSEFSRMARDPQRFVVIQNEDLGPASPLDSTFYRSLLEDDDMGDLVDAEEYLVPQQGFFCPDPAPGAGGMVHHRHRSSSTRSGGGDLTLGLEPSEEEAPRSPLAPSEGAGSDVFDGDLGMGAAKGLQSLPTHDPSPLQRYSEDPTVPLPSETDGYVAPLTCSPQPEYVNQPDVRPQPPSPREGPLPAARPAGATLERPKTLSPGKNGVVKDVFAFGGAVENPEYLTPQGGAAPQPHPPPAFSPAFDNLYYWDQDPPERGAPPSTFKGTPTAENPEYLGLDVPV
pIC50: −log10 of the molar value.
Returns 1 (yes) if the recorded pIC50 is greater than or equal to 7, and 0 (no) otherwise.

compound: NS(=O)(=O)c1ccc(Cn2c(SCC(=O)NN=Cc3ccccc3O)nc3ccccc3c2=O)cc1 [Compound 6]
assigned_class: 1 (yes)

Q: Is pIC50 at least 7? Consider COc1cccc(C=NNC(=O)CSc2nc3ccccc3c(=O)n2Cc2ccc(S(N)(=O)=O)cc2)c1 [Compound 7]
Result: 0 (no)

Q: Is pIC50 at least 7? Consider Cc1ccc(C=NNC(=O)CSc2nc3ccccc3c(=O)n2Cc2ccc(S(N)(=O)=O)cc2)cc1 [Compound 9]
Result: 0 (no)

Q: Is pIC50 at least 7? Consider CCN(CC)c1ccc(C=NNC(=O)CSc2nc3ccccc3c(=O)n2Cc2ccc(S(N)(=O)=O)cc2)c(O)c1 [Compound 5]
Result: 1 (yes)

Values from paper PMC11702208
